The reported measurements were obtained from patent US9540337B2.

# measured on: Human GGT1 (Homo sapiens, UniProt P19440)
# Construct: lacking the transmembrane domain
# measurement protocol: Initial rate studies with D-GpNA and L-GpNA, with or without acceptor GlyGly
# assay conditions: absence of GlyGly; read-out: Kis of GSH vs L-GpNA
observable: pKi
// pKi is dimensionless: -log10 of concentration (M)

QUERY: What value of pKi has been recorded for this entry: N[C@@H](CCC(=O)N[C@@H](CS)C(=O)NCC(=O)O)C(=O)O [GSH, glutathione, reference compound]
RESULT: 4.14

---

# measured on: Human GGT1 (hGGT) (Homo sapiens)
# Sequence (P19440 381-569 limits assumed): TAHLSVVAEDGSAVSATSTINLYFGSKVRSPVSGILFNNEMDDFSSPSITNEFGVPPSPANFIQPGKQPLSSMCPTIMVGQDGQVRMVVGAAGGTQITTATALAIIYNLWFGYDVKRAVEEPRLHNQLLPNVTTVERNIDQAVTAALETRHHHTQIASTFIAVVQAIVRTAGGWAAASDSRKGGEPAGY
# Sequence (P19440 27-380 limits assumed): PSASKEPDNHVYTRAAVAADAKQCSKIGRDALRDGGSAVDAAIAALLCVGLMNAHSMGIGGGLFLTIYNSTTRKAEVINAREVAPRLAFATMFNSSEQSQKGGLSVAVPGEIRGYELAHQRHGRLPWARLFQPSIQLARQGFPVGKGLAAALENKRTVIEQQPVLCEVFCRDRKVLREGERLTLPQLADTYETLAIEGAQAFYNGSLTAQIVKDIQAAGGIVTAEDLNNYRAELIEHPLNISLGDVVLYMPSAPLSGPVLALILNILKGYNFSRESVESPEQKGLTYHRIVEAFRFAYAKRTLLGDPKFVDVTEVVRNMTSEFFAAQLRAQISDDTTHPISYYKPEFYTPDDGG
# measurement protocol: L-GpNA Transpeptidation Assay with GlyGly as acceptor
# Type: biochemical
# Set-up: lacking the transmembrane domain; made in house; host or cells: Pichia pastoris
# assay conditions: L-GpNA varied, 40 mM GlyGly; Table 2; read-out: Transpeptidation L-GpNA Kii
observable: Ki (µM)
All answers are understood in µM, so give the number only.

QUERY: GET /values?readout=Ki&item= COc1ccc(Cc2nnc(NS(=O)(=O)c3cccc(Cl)c3)s2)cc1
RESULT: 22

QUERY: Follow-up item: COc1ccc(Cc2nnc(NS(=O)(=O)c3ccc(C)cc3)s2)cc1
RESULT: 22.7

QUERY: // repeat for COc1ccc(Cc2nnc(NS(=O)(=O)c3ccc(C(F)(F)F)cc3)s2)cc1 and report
RESULT: 117

QUERY: Thanks! And COc1ccc(Cc2nnc(NS(=O)(=O)c3ccc(Cl)c(Cl)c3)s2)cc1 ?
RESULT: 18.2

QUERY: Continue with COc1ccc(Cc2nnc(NS(=O)(=O)c3ccc(C(C)(C)C)cc3)s2)cc1
RESULT: 150

---

# measured on: UniProt:P19440
# measurement protocol: L-GpNA Transpeptidation Assay with GlyGly as acceptor
# Format: biochemical
# Set-up: lacking the transmembrane domain; made in house; host or cells: Pichia pastoris
# assay conditions: in the presence of 3 mM L-GpNA; read-out: Kii of GSH vs GlyGly
observable: Ki (mM)
Only the number, expressed in mM, is required.

QUERY: Which value of Ki has been reported for N[C@@H](CCC(=O)N[C@@H](CS)C(=O)NCC(=O)O)C(=O)O [GSH, glutathione, reference compound] in the records?
RESULT: 3

---

// Ki lookup, one value per entry
# measured on: Human GGT1 (hGGT) (Homo sapiens)
# measurement protocol: L-GpNA Transpeptidation Assay with GlyGly as acceptor
# Assay type: biochemical
# Design: lacking the transmembrane domain; made in house; host or cells: Pichia pastoris
# assay conditions: Table 5; read-out: L-GpNA with GlyGly Kii
Enter your answer as a number in µM; do not include the unit.

Look over these answered cases.
{"columns": ["smiles code", "measured on", "Ki [µM]"],
 "data": [
  ["Nc1ccc(Cc2nnc(NS(=O)(=O)c3ccc(N)cc3)s2)cc1", "Human GGT1 (hGGT) (Homo sapiens)", 181],
  ["Cc1cccc(Cc2nnc(NS(=O)(=O)c3ccc(N)cc3)s2)c1", "Human GGT1 (hGGT) (Homo sapiens)", 129],
  ["Nc1ccc(S(=O)(=O)Nc2nnc(Cc3ccc(Cl)cc3)s2)cc1", "Human GGT1 (hGGT) (Homo sapiens)", 54],
  ["Nc1ccc(S(=O)(=O)Nc2nnc(Cc3ccc(Cl)c(Cl)c3)s2)cc1", "Human GGT1 (hGGT) (Homo sapiens)", 34]
]}

QUERY: For the molecule CN(C)c1ccc(Cc2nnc(NS(=O)(=O)c3ccc(N)cc3)s2)cc1 , what Ki is on record?
RESULT: 275

QUERY: Another molecule to check: Cc1ccc(Cc2nnc(NS(=O)(=O)c3ccc(N)cc3)s2)cc1
RESULT: 30

QUERY: What about Nc1ccc(S(=O)(=O)Nc2nnc(Cc3ccccc3)s2)cc1 ?
RESULT: 74

QUERY: Note, next up: Nc1ccc(S(=O)(=O)Nc2nnc(Cc3ccc(F)cc3)s2)cc1
RESULT: 58
